Origin of values: ChEMBL document CHEMBL1201862

Target: Coagulation factor XII (Homo sapiens, UniProt P00748);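 further: activated factor XIIa alpha cleaving a fluorogenic AMC peptide substrate; inhibitor potency from loss of enzyme activity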
Sequence (P00748 20-372 limits assumed): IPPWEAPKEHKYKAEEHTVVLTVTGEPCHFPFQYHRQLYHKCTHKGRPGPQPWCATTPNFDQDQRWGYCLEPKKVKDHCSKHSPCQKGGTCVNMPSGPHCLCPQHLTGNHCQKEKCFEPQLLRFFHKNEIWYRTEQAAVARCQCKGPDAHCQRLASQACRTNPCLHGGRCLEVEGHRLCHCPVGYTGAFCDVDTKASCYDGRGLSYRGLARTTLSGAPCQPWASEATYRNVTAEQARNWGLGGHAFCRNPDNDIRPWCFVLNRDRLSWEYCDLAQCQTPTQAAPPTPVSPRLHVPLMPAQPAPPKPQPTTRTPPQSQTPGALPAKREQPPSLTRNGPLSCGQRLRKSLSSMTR
Sequence (P00748 373-615 limits assumed): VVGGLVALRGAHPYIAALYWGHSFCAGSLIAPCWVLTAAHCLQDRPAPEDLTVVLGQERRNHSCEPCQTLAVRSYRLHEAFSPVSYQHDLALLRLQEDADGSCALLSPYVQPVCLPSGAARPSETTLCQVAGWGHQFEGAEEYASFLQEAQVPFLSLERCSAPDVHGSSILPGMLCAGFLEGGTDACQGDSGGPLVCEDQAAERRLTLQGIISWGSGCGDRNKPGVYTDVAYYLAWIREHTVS
Assay type: functional
The source made the active and inactive calls.
measurement-kind: IC50

>>> df
                                   molecule  measurement_kind     reported_result
0  CCOC(=O)c1ccc2c(c1)nc(C1CCN(S(=O)(=O)c3cccs3)CC1)n2CC              IC50  > 50 µM (inactive)
1        Cc1cc(C)n(/N=C/c2ccccc2)c(=O)c1C#N              IC50  > 50 µM (inactive)
2  COc1ccc(N2C(=O)[C@@H]3[C@H](C2=O)[C@H]2c4ccccc4C=CN2[C@@H]3C(=O)Nc2ccccc2)cc1              IC50  > 50 µM (inactive)
3         O=C(O)CC1(CC(=O)NCc2ccncc2)CCCCC1              IC50  > 50 µM (inactive)
4  COc1ccc(C2c3cc(OC)c(OC)cc3CCN2S(C)(=O)=O)cc1OC (stereo not given)              IC50  > 50 µM (inactive)
